Provide the reported activity at 5 µM of each item.
- Tested on: MDA-MB-231 cells
- PROCEDURE SUMMARY: MTT cytotoxicity assay against MDA-MB-231
- Assay type: cell-based
- SETTINGS: Homo sapiens, MDAMB231, 5 µM, 48 h, read-out: Percentage of inhibition against treated concentrations
Respond numerically; units are % and should not be typed.

If you can, please state the reported activity at 5 µM value of O=C(c1ccncc1)N1CCn2c3ccccc3c(=O)c3cccc1c32 [Compound 7c] . 57.4

Entry O=c1c2ccccc2n2c3c(cccc13)N(c1nccs1)CC2 [Compound 7j] has what activity at 5 µM? 58.4

# lookup: activity at 5 µM of O=C(c1cccc(C(F)(F)F)n1)N1CCn2c3ccccc3c(=O)c3cccc1c32 [Compound 7i] 55.7

Tell me the measured activity at 5 µM of O=C(c1ccc(C(F)(F)F)cc1)N1CCn2c3ccccc3c(=O)c3cccc1c32 [Compound 7o] , please. 76.6

Dear colleague, I am looking for the recorded activity at 5 µM of the following molecule: O=C(c1ccccc1)N1CCn2c3ccccc3c(=O)c3cccc1c32 [Compound 7l] 82.4

Query (molecule): O=C(c1ccc(F)cc1)N1CCn2c3ccccc3c(=O)c3cccc1c32 [Compound 7r] ; field requested: activity at 5 µM 86.3

Report activity at 5 µM for Cc1cccc(C(=O)N2CCn3c4ccccc4c(=O)c4cccc2c43)n1 [Compound 7e] please. 52.9

Returns the measured activity at 5 µM for the input molecule. Input: O=C(c1ccccc1C(F)(F)F)N1CCn2c3ccccc3c(=O)c3cccc1c32 [Compound 7m] 71.2

Reported activity at 5 µM, molecule Cc1ccc(C(=O)N2CCn3c4ccccc4c(=O)c4cccc2c43)nc1 [Compound 7f] : ____ 54.2

Look at this molecule and give its reported activity at 5 µM. O=c1c2ccccc2n2c3c(cccc13)N(c1cccnc1)CC2 [Compound 7s] 59.9

Recorded activity at 5 µM for O=C(c1ccc(O)cc1)N1CCn2c3ccccc3c(=O)c3cccc1c32 [Compound 7k] , please? 88.2

Which value of activity at 5 µM has been reported for O=C(c1cccnc1)N1CCn2c3ccccc3c(=O)c3cccc1c32 [Compound 7b] in the records? 56.4

For the molecule shown here, O=C(c1cccc(C(F)(F)F)c1)N1CCn2c3ccccc3c(=O)c3cccc1c32 [Compound 7n] , give the reported activity at 5 µM. 69.8

// returns reported activity at 5 µM for input COc1cccc2c1C(=O)c1c(O)c3c(c(O)c1C2=O)C[C@@](O)(C(=O)CO)C[C@@H]3O[C@H]1C[C@H](N)[C@H](O)[C@H](C)O1 [Doxorubicin, reference compound] 87.5

Dear colleague, I am looking for the recorded activity at 5 µM of the following molecule: O=C(c1cccc(F)c1)N1CCn2c3ccccc3c(=O)c3cccc1c32 [Compound 7q] 72.4

Look up activity at 5 µM: O=C(c1ccsc1)N1CCn2c3ccccc3c(=O)c3cccc1c32 [Compound 7h] 53.8

Reported activity at 5 µM for O=C(c1ccccc1F)N1CCn2c3ccccc3c(=O)c3cccc1c32 [Compound 7p] : what is it? 68.3

Any idea what its activity at 5 µM is? The molecule is O=C(c1ccccn1)N1CCn2c3ccccc3c(=O)c3cccc1c32 [Compound 7a] 55.2

activity at 5 µM lookup needed for O=C(CC1CC1)N1CCn2c3ccccc3c(=O)c3cccc1c32 [Compound 7d] , thanks. 55.7

Form field: reported activity at 5 µM of Cc1cccnc1C(=O)N1CCn2c3ccccc3c(=O)c3cccc1c32 [Compound 7g] 52.3
